This collection of values is drawn from patent US20260132123A1.

The following compounds are shown together with reported LDH % Toxicity (50 μM Dose) values.
- Test system: mtsABAD HEK293 cells
- method notes: Lactate dehydrogenase (LDH) cytotoxicity assay
- Type: cell-based, human
- condition summary: 50 μM compound
parameter measured: LDH % Toxicity (50 μM Dose) (%)

>  <compound>
COc1ccc(C(=O)N(CC(C)C)c2cccc(N(C)Cc3cnc[nH]3)c2)cc1

>  <parameter measured>
LDH % Toxicity (50 μM Dose)

>  <test value>
4.733

$$$$
>  <compound>
Cc1ccsc1C(=O)N1CCC[C@H]1c1ccccc1-c1ccc(Cl)cc1Cl

>  <parameter measured>
LDH % Toxicity (50 μM Dose)

>  <test value>
5.33

$$$$
>  <compound>
CC(C)CN(C(=O)c1ccccc1F)c1cccc(N(C)Cc2cn(C)cn2)c1

>  <parameter measured>
LDH % Toxicity (50 μM Dose)

>  <test value>
5.136

$$$$
>  <compound>
CN(C)CCN(C(=O)c1ccccc1F)c1cccc(N(C)Cc2c[nH]cn2)c1

>  <parameter measured>
LDH % Toxicity (50 μM Dose)

>  <test value>
5.17

$$$$
>  <compound>
COc1ccc(-c2ccccc2[C@@H]2CCCN2C(=O)c2sccc2C)cc1 (single isomer, unassigned)

>  <parameter measured>
LDH % Toxicity (50 μM Dose)

>  <test value>
3.52

$$$$
>  <compound>
COCCn1cnc(CN(C)c2cccc(NC(=O)c3ccccc3F)c2)c1

>  <parameter measured>
LDH % Toxicity (50 μM Dose)

>  <test value>
4.975

$$$$
>  <compound>
CC(C)CN(C(=O)c1ccc(Cl)cc1)c1cccc(N(C)Cc2cnc[nH]2)c1

>  <parameter measured>
LDH % Toxicity (50 μM Dose)

>  <test value>
5.082

$$$$
>  <compound>
COc1ccc(-c2ccccc2[C@H]2CCCN2C(=O)c2sccc2C)cc1 (single isomer, unassigned) [ESC1002331]

>  <parameter measured>
LDH % Toxicity (50 μM Dose)

>  <test value>
5.88

$$$$
>  <compound>
Cc1ccsc1C(=O)N1CCC[C@H]1c1ccccc1-c1cnn(C2CCOCC2)c1

>  <parameter measured>
LDH % Toxicity (50 μM Dose)

>  <test value>
5.13

$$$$
>  <compound>
COc1cccc(-c2ccccc2[C@@H]2CCCN2C(=O)c2sccc2C)c1

>  <parameter measured>
LDH % Toxicity (50 μM Dose)

>  <test value>
4.64

$$$$
>  <compound>
Cc1ccsc1C(=O)N1CCC[C@@H]1c1ccccc1-c1ccn[nH]1

>  <parameter measured>
LDH % Toxicity (50 μM Dose)

>  <test value>
5.395

$$$$
>  <compound>
Cc1ccc(-c2ccccc2[C@@H]2CCCN2C(=O)c2sccc2C)cc1

>  <parameter measured>
LDH % Toxicity (50 μM Dose)

>  <test value>
4.10

$$$$
>  <compound>
Cc1ccsc1C(=O)N1CCC[C@H]1c1ccccc1-c1ccc(S(C)(=O)=O)cc1

>  <parameter measured>
LDH % Toxicity (50 μM Dose)

>  <test value>
5.17

$$$$
>  <compound>
CC(C)CN(C(=O)c1ccccc1F)c1cccc(N(C)Cc2cccnc2)c1

>  <parameter measured>
LDH % Toxicity (50 μM Dose)

>  <test value>
5.509

$$$$
>  <compound>
Cc1n[nH]c(Cc2ccccc2)c1-c1ccccc1O

>  <parameter measured>
LDH % Toxicity (50 μM Dose)

>  <test value>
5.192

$$$$
>  <compound>
COc1cccc(-c2ccccc2[C@@H]2CCCN2C(=O)c2sccc2C)c1OC

>  <parameter measured>
LDH % Toxicity (50 μM Dose)

>  <test value>
5.05

$$$$
>  <compound>
CC(C)CN(C(=O)c1ccccc1F)c1cccc(N(C)Cc2cncs2)c1

>  <parameter measured>
LDH % Toxicity (50 μM Dose)

>  <test value>
20.084

$$$$
>  <compound>
CC(C)CN(C(=O)c1ccccc1F)c1cccc(N(C)Cc2nccn2C)c1

>  <parameter measured>
LDH % Toxicity (50 μM Dose)

>  <test value>
2.542

$$$$
